Tested on: UACC-257 melanoma
Assay: NCI-60 one-dose screen, 48 h
Conditions: 10 µM
Description: Cells are grown in 96 well plates and exposed to the test compound for 48 hours. Compounds are tested at a single concentration, which is 10^-5 M for most compounds. The reported endpoint is percent growth (GI% or GIPRCNT), where numbers from 0 - 100% represent growth inhibition, and numbers from -100% - 0 represent cell death. For example, a value of 40 represents 60% growth inhibition. A value of 0 means no net growth occurred over the course of the experiment. […]
About 83,000 compounds went through this panel and 20% of them were active in at least one assay; those are over-represented in the sample as a whole. Activity calls are given as the source filed them. How the source made its calls: active means growth percent below 10; inactive means the rest.
Parameter call: string, one of true (1) for active, false (0) for inactive

## Task Hi, do you know how CCC1CCc2nc3sc(C(=O)Nc4cccc(C)c4)c(N)c3cc2C1 (centres undefined) came out in this test?
## Result false (0)

## Task Hi, do you know how "COc1cc(-c2nc(-c3nc4ccccc4[nH]3)cc3c2[nH]c2ccccc23)cc(OC)c1OC" came out in this test?
## Result false (0)

## Task Hi, do you know how "CCOC(=O)CC(C#N)(CC(=O)OCC)C(=O)OCC" came out in this test?
## Result false (0)

## Task Hi, do you know how "COc1cc(Cn2c(SCC(=O)Nc3ccc(Cl)cc3)nc3ccccc3c2=O)cc(OC)c1OC" came out in this test?
## Result false (0)

## Task Hi, do you know how "Cc1ccc(OCCn2c(C)nn(-c3ccc(Cl)cc3)c2=O)cc1" came out in this test?
## Result false (0)

## Task Hi, do you know how "COc1cccc(-n2cc(-c3nc(Cl)c4ccccc4n3)nn2)c1" came out in this test?
## Result false (0)

## Task Hi, do you know how COC(=O)C(CC(=O)c1ccc(-c2ccccc2)cc1)c1ccccc1 (centres undefined) came out in this test?
## Result false (0)

## Task Hi, do you know how "CC[C@]1(O)C[C@@H]2CN(Cc3c([nH]c4ccccc34)[C@@](C(=O)OC)(c3cc4c(cc3OC)N(C)[C@H]3[C@@](O)(C(=O)OC)[C@H](OC(C)=O)[C@]5(CC)[C@@H]6C[C@@H]6CN6CC[C@]43[C@@H]65)C2)C1" came out in this test?
## Result false (0)

## Task Hi, do you know how "O=C(O)c1cccc([N+](=O)[O-])c1/C=C/c1ccccc1" came out in this test?
## Result false (0)

## Task Hi, do you know how "O=C1Nc2ccc(Br)cc2C1=N/C=c1\[nH]c(=O)/c(=C/c2ccc(Cl)cc2)s1" came out in this test?
## Result false (0)

## Task Hi, do you know how COc1ccc(C2=NN(c3ccc(S(N)(=O)=O)cc3)C(c3cn(-c4ccccc4)nc3-c3ccc(Cl)cc3)C2)cc1 (centres undefined) came out in this test?
## Result false (0)

## Task Hi, do you know how "COc1cccc(/C=C/C(=O)c2sc(Nc3ccc(O)cc3)nc2C)c1" came out in this test?
## Result false (0)

## Task Hi, do you know how "C[C@]12CC[C@@H]3c4cc(O)c(O)cc4CC[C@H]3[C@@H]1CC[C@@H]2O" came out in this test?
## Result false (0)

## Task Hi, do you know how "CCN(CC)P(=O)(N(CC)CC)N(CCCSC/C=C(\C)CC/C=C(\C)CCC=C(C)C)CCCN1CCN(C)CC1" came out in this test?
## Result false (0)

## Task Hi, do you know how "O=C1N=C(c2c(-c3[nH]c(=O)c4ccc(Br)cc4c3O)c(O)c3ccccc3c2O)C(=O)c2cc(Br)ccc21" came out in this test?
## Result true (1)

## Task Hi, do you know how "Clc1nc(-c2cccnc2)nc2sc3c(c12)CCCCCC3" came out in this test?
## Result false (0)

## Task Hi, do you know how O=C(Nc1ccccc1)OCC1OCOC(COC(=O)Nc2ccccc2)C1OC(=O)Nc1ccccc1 (centres undefined) came out in this test?
## Result false (0)

## Task Hi, do you know how "COc1cc(-c2cc(/C=C3\CCCCC3=O)[nH]n2)cc(OC)c1OC" came out in this test?
## Result false (0)

## Task Hi, do you know how "COc1ccc(NC(=O)CSc2nc3ccc(Cl)cc3c(=O)n2-c2ccccc2C(F)(F)F)c(OC)c1OC" came out in this test?
## Result false (0)

###

What growth was measured for each of the following?
System: HOP-92 NSCLC
Assay: NCI-60 one-dose screen, 48 h (100 = growth as untreated, 0 = no growth, -100 = all killed)
Conditions: 10 µM unless noted
The panel holds about 83,000 compounds, 20% with a hit somewhere; the sample as a whole holds those more often.
Numbers only here, please. The scale is %.

## Task Consider the molecule "O=C(Nc1cc(C(F)(F)F)cc(C(F)(F)F)c1)Nc1ccc(OCc2nnc(-c3ccc(Cl)cc3)o2)c(F)c1" and give its measured growth.
## Result -11.9

## Task Consider the molecule "COc1ncc(-c2ccc3ncnc(Nc4cccc(Cl)c4)c3c2)cc1NS(=O)(=O)CCN1CCOCC1" and give its measured growth.
## Result -26.3

## Task Consider the molecule "COc1ccc(/C=C/c2nc(N3CCOCC3)c3nc(Cl)c(Cl)cc3n2)cc1OC" and give its measured growth.
## Result 105

## Task Consider the molecule "Nc1c(C(=O)Nc2c(Cl)cccc2Cl)sc2nc3c(cc12)CCCCC3" and give its measured growth.
## Result 59.4

## Task Consider the molecule "O=C(Nc1ccc(OCc2nnc(-c3ccc(Cl)cc3)o2)c(F)c1)Nc1ccc(Cl)c(Cl)c1" and give its measured growth.
## Result 59

## Task Consider the molecule "COc1ccc2c(c1)NC(=O)CN2c1nc(NC2CC2)nc2ccccc12" and give its measured growth.
## Result 3.22

## Task Consider the molecule CCOC(=O)C1=C(CSC(=S)N(C2CCCCC2)C2CCCCC2)N(C)C(=O)NC1c1ccccc1 (centres undefined) and give its measured growth.
## Result 69

## Task Consider the molecule "O=C(OCCCCOC(=O)n1cnc2ccccc21)n1cnc2ccccc21" and give its measured growth.
## Result 88.8

## Task Consider the molecule CC(C(=O)n1cc(-c2ccccc2)c(-c2ccccc2)c1)c1ccccc1 (centres undefined) and give its measured growth.
## Result 90.5

###

Tested on: SN12C renal
Experiment: NCI-60 one-dose screen, 48 h (100 = growth as untreated, 0 = no growth, -100 = all killed)
Settings: 10 µM unless noted
This is part of a sample that, as a whole, favours compounds with a hit. Of some 83,000 tested, about 20% had one in any assay.
What growth was measured for each of the following?
Numbers only here, please. The scale is %.

## Task Consider the molecule "C/C(=C\c1csc(C)n1)[C@@H]1C[C@@H]2O[C@]2(C)CCC[C@H](C)[C@H](O)[C@@H](C)C(=O)C(C)(C)[C@@H](O)CC(=O)N1" and give its measured growth.
## Result -81.1

## Task Consider the molecule "c1cncc(CNc2ccccc2-c2nnc(Nc3ccc4c(c3)OCCO4)o2)c1" and give its measured growth.
## Result 37.7

## Task Consider the molecule COc1cc(/C=C2\CCCC3=C2NC(C)=NC3c2cc(OC)c(OC)c(OC)c2)cc(OC)c1OC (centres undefined) and give its measured growth.
## Result 10.8

## Task Consider the molecule "CCN(CC)c1cc(/C=C/c2ccc(OC)c(OC)c2)nc2cc(F)c(F)cc12" and give its measured growth.
## Result 57

###

Tested on: KM12 colon
Experiment: NCI-60 one-dose screen, 48 h (100 = growth as untreated, 0 = no growth, -100 = all killed)
Settings: 10 µM unless noted
Compounds without any hit were thinned out: in the full panel of roughly 83,000, 20% have a hit.
# criterion met = growth below 40% (exclusive); criterion not met = growth at/above 40%

## Task growth under 40%? Item: "Cc1cc(Nc2nc(-c3ccc(F)cc3)nc3ccccc23)n[nH]1"
## Result criterion met

## Task growth under 40%? Item: "COc1ccc(C(=O)c2cc(OC)c(OC)c(OC)c2)cc1/C=C/C(=O)c1ccc(OC)c(OC)c1"
## Result criterion met

## Task growth under 40%? Item: "COc1cc(C(=O)/C=C/c2cc(C(=O)c3cc(OC)c(OC)c(OC)c3)ccc2OC)ccc1N"
## Result criterion met

## Task growth under 40%? Item: C#CCC1(c2ccc(F)c(F)c2)NS(=O)(=O)c2ccccc21 (stereo not given)
## Result criterion not met

## Task growth under 40%? Item: "O=C(O)Cc1ccc2c(c1)Cc1cccnc1O2"
## Result criterion not met

## Task growth under 40%? Item: "O=C(CSc1nc(-c2ccc(Cl)cc2)cn1-c1ccc(Cl)cc1)c1ccc(Br)cc1"
## Result criterion not met

## Task growth under 40%? Item: "CCCCCCOc1ccc(C2(Cl)c3ccccc3N(C)c3ccccc32)cc1"
## Result criterion not met

## Task growth under 40%? Item: "CC(C)C[C@H](NC(=O)Cn1ccc(NCc2ccccc2)cc1=O)B(O)O"
## Result criterion met

## Task growth under 40%? Item: "COc1ccc(NC(=O)/N=c2\oc3c(OC)cccc3cc2-c2cc3ccccc3[nH]2)cc1"
## Result criterion not met

Just for reference, PubChem BioAssay (NCI) is where these values come from.
